Test system: Pharbitis purpurea (PHBPU)
Assay: Post-emergence herbicidal action, greenhouse pot test
Format: in vivo
Settings: 20 g/ha
# maps each entry to its Post-emergence effect at 20 g/ha against PHBPU in %
Answer in %, number only, no unit symbol.

Study these solved cases before continuing.
INSERT INTO results (compound, unit, numeric_result) VALUES
  ('Cn1c(C(F)(F)F)cc(=O)n(-c2cc(Oc3ccccc3OCC(=O)OCC3CC3(F)F)c(Cl)cc2F)c1=O (centres unmarked)', '%', 100),
  ('Cn1c(C(F)(F)F)cc(=O)n(-c2cc(Oc3ccccc3OCC(=O)OCC3(C#N)CC3)c(Cl)cc2F)c1=O', '%', 100),
  ('Cn1c(C(F)(F)F)cc(=O)n(-c2cc(Oc3ccccc3OCC(=O)OCC3CC3)c(Cl)cc2F)c1=O', '%', 100),
  ('Cn1c(C(F)(F)F)cc(=O)n(-c2cc(Oc3ccccc3OCC(=O)OCC3(F)CC3)c(Cl)cc2F)c1=O', '%', 100),
  ('Cn1c(C(F)(F)F)cc(=O)n(-c2cc(Oc3ccccc3OCC(=O)OCC3CC3(C)C)c(Cl)cc2F)c1=O (centres unmarked)', '%', 100),
  ('Cn1c(C(F)(F)F)cc(=O)n(-c2cc(Oc3ccccc3OCC(=O)OC(C#N)C3CC3)c(Cl)cc2F)c1=O (centres unmarked)', '%', 100);

Measured Post-emergence effect at 20 g/ha against PHBPU in %, Cn1c(C(F)(F)F)cc(=O)n(-c2cc(Oc3ccccc3OCC(=O)OCC3CC34CCC4)c(Cl)cc2F)c1=O (centres unmarked) : 100

Measured Post-emergence effect at 20 g/ha against PHBPU in %, CC(OC(=O)COc1ccccc1Oc1cc(-n2c(=O)cc(C(F)(F)F)n(C)c2=O)c(F)cc1Cl)C1CCCC1 (centres unmarked) : 100

Measured Post-emergence effect at 20 g/ha against PHBPU in %, Cn1c(C(F)(F)F)cc(=O)n(-c2cc(Oc3cc(F)ccc3OCC(=O)OCC3CC3)c(Br)cc2F)c1=O : 100

Measured Post-emergence effect at 20 g/ha against PHBPU in %, CC(OC(=O)COc1ccccc1Oc1cc(-n2c(=O)cc(C(F)(F)F)n(C)c2=O)c(F)cc1Cl)C1CCCCC1 (centres unmarked) : 100

Measured Post-emergence effect at 20 g/ha against PHBPU in %, Cn1c(C(F)(F)F)cc(=O)n(-c2cc(Oc3ccccc3OCC(=O)OCC3(C)CC3)c(Cl)cc2F)c1=O : 100

====

System: Pharbitis purpurea (PHBPU)
Assay: Post-emergence herbicidal action, greenhouse pot test
Format: in vivo
Settings: Ipomoea purpurea, 504 h, 5 g/ha, read-out: Post-emergence effect at 5 g/ha against PHBPU in %
readout label: pest or weed control at 5 g/ha (%)
Answer in %, number only, no unit symbol.

Study these solved cases before continuing.
INSERT INTO results (compound, experimental_target, readout_label, unit, numeric_result) VALUES
  ('Cn1c(C(F)(F)F)cc(=O)n(-c2cc(Oc3ccccc3OCC(=O)OCC3CCCC3)c(Cl)cc2F)c1=O', 'Pharbitis purpurea (PHBPU)', 'pest or weed control at 5 g/ha', '%', 100),
  ('Cn1c(C(F)(F)F)cc(=O)n(-c2cc(Oc3ccccc3OCC(=O)OCC3CC3)c(Br)cc2F)c1=O', 'Pharbitis purpurea (PHBPU)', 'pest or weed control at 5 g/ha', '%', 80);

Measured pest or weed control at 5 g/ha, CC(OC(=O)COc1ccccc1Oc1cc(-n2c(=O)cc(C(F)(F)F)n(C)c2=O)c(F)cc1Cl)C1CC1 (centres unmarked) : 100

Measured pest or weed control at 5 g/ha, Cn1c(C(F)(F)F)cc(=O)n(-c2cc(Oc3ccccc3OCC(=O)OCC3CCC3)c(Cl)cc2F)c1=O : 100

====

Tested on: Pharbitis purpurea (PHBPU)
Assay: Post-emergence herbicidal action, greenhouse pot test
Type: in vivo
Settings: 1.25 g/ha
readout label: Post-emergence effect at 1.25 g/ha against PHBPU in % (%)
Answer in %, number only, no unit symbol.

INSERT INTO assay_data (molecule, experimental_target, unit, numeric_result) VALUES
  ('Cn1c(C(F)(F)F)cc(=O)n(-c2cc(Oc3ccccc3OCC(=O)OCC3CCCCC3)c(Cl)cc2F)c1=O', 'Pharbitis purpurea (PHBPU)', '%', 100),
  ('Cn1c(C(F)(F)F)cc(=O)n(-c2cc(Oc3ccccc3OCC(=O)OCC3(C#N)CC3)c(Cl)cc2F)c1=O', 'Pharbitis purpurea (PHBPU)', '%', 100),
  ('Cn1c(C(F)(F)F)cc(=O)n(-c2cc(Oc3ccccc3OCC(=O)OCC3CC3)c(Cl)cc2F)c1=O', 'Pharbitis purpurea (PHBPU)', '%', 80),
  ('Cn1c(C(F)(F)F)cc(=O)n(-c2cc(Oc3ccccc3OCC(=O)OCC3CCCCCC3)c(Cl)cc2F)c1=O', 'Pharbitis purpurea (PHBPU)', '%', 80),
  ('Cn1c(C(F)(F)F)cc(=O)n(-c2cc(Oc3ccccc3OCC(=O)OCC3CC34CCC4)c(Cl)cc2F)c1=O (stereo not shown)', 'Pharbitis purpurea (PHBPU)', '%', 80),
  ('CC(OC(=O)COc1ccccc1Oc1cc(-n2c(=O)cc(C(F)(F)F)n(C)c2=O)c(F)cc1Cl)C1CCCC1 (stereo not shown)', 'Pharbitis purpurea (PHBPU)', '%', 100);

Now take the following molecule into account.
Measured Post-emergence effect at 1.25 g/ha against PHBPU in %, Cn1c(C(F)(F)F)cc(=O)n(-c2cc(Oc3ccccc3OCC(=O)OCC3CC3(C)C)c(Cl)cc2F)c1=O (stereo not shown) : 100

====

# maps each entry to its Post-emergence effect at 1.25 g/ha against TRZAS in %
Tested on: Triticum aestivum (TRZAS)
Test: Post-emergence crop plant compatibility, greenhouse pot test
Format: in vivo
Details: Triticum aestivum, in vivo
Answer in %, number only, no unit symbol.

Study these solved cases before continuing.
INSERT INTO measurements (compound, experimental_target, numeric_result) VALUES
  ('CC(OC(=O)COc1ccccc1Oc1cc(-n2c(=O)cc(C(F)(F)F)n(C)c2=O)c(F)cc1Cl)C1CC1 (centres unmarked) [I.7-2]', 'Triticum aestivum (TRZAS)', 10),
  ('Cn1c(C(F)(F)F)cc(=O)n(-c2cc(Oc3ccccc3OCC(=O)OCC3CCC3)c(Cl)cc2F)c1=O [I.7-10]', 'Triticum aestivum (TRZAS)', 20),
  ('Cn1c(C(F)(F)F)cc(=O)n(-c2cc(Oc3ccccc3OCC(=O)OCC3CC3)c(Br)cc2F)c1=O [I.8-1]', 'Triticum aestivum (TRZAS)', 0),
  ('Cn1c(C(F)(F)F)cc(=O)n(-c2cc(Oc3ccccc3OCC(=O)OCC3CCCCCC3)c(Cl)cc2F)c1=O [I.7-16]', 'Triticum aestivum (TRZAS)', 10),
  ('Cn1c(C(F)(F)F)cc(=O)n(-c2cc(Oc3ccccc3OCC(=O)OCC3CC34CC4)c(Cl)cc2F)c1=O (centres unmarked) [I.7-18]', 'Triticum aestivum (TRZAS)', 10),
  ('Cn1c(C(F)(F)F)cc(=O)n(-c2cc(Oc3ccccc3OCC(=O)OCC3CCCCC3)c(Cl)cc2F)c1=O [I.7-14]', 'Triticum aestivum (TRZAS)', 20),
  ('Cn1c(C(F)(F)F)cc(=O)n(-c2cc(Oc3ccccc3OCC(=O)OCC3CC3)c(C#N)cc2F)c1=O [I.9-1]', 'Triticum aestivum (TRZAS)', 0);

Now take the following compound into account.
Observed Post-emergence effect at 1.25 g/ha against TRZAS in % on Triticum aestivum (TRZAS), entry Cn1c(C(F)(F)F)cc(=O)n(-c2cc(Oc3ccccc3OCC(=O)OCC3CCCC3)c(Cl)cc2F)c1=O [I.7-12] , equals 10

====

# maps each entry to its Post-emergence effect at 20 g/ha against TRZAS in %
Tested on: Triticum aestivum (TRZAS)
Assay: Post-emergence crop plant compatibility, greenhouse pot test
Format: in vivo
Conditions: Triticum aestivum, in vivo

Study these solved cases before continuing.
INSERT INTO measurements (smiles_input, experimental_target, result) VALUES
  ('Cn1c(C(F)(F)F)cc(=O)n(-c2cc(Oc3ccccc3OCC(=O)OCC3CCCCCC3)c(Cl)cc2F)c1=O', 'Triticum aestivum (TRZAS)', '20%'),
  ('Cn1c(C(F)(F)F)cc(=O)n(-c2cc(Oc3ccccc3OCC(=O)OCC3CCCC3)c(Cl)cc2F)c1=O', 'Triticum aestivum (TRZAS)', '20%');

Measured Post-emergence effect at 20 g/ha against TRZAS in %, Cn1c(C(F)(F)F)cc(=O)n(-c2cc(Oc3ccccc3OCC(=O)OCC3CC3)c(Br)cc2F)c1=O : 0%

Measured Post-emergence effect at 20 g/ha against TRZAS in %, Cn1c(C(F)(F)F)cc(=O)n(-c2cc(Oc3ccccc3OCC(=O)OCC3CC3)c(C#N)cc2F)c1=O : 20%
